Tgt: human recombinant GST cleaved CSNK1D (Homo sapiens (Human))
Sequence (P48730 whole entry): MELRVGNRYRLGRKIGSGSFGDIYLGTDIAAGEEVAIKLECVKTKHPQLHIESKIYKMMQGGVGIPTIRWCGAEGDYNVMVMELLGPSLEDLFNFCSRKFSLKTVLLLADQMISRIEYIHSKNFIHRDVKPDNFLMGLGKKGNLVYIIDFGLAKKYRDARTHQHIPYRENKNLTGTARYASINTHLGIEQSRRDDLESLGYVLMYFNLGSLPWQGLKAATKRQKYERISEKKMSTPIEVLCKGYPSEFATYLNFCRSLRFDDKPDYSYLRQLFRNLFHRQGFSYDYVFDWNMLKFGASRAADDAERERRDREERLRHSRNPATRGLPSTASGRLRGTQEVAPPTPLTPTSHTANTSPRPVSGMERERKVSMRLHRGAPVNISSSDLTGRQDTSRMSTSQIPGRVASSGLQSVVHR
Assay protocol: Purified enzyme assay (ADP-Glo Kinase Assay)
Format: biochemical
Run parameters: 2 nM CSNK1D, peptide substrate 150 μM, ATP 20 μM, 45 minutes room temperature
Reported metric: AC50 (µM)

Please review the entries below; each comes with its answer.
> print(dat)
                                   molecule  output.unit  numeric.value
1  COc1cc2c(-c3cn(C)nc3-c3ccc(F)cn3)ccnc2cc1F [Example 111]           µM          0.028
2  Cn1cc(-c2ccnc3c2CCNC3)c(-c2ccc(F)cn2)n1 [Example 113]           µM          0.144
3  Cc1cc(-c2cn(C(F)F)nc2-c2ccc(F)cn2)c2cn[nH]c2n1 [Example 67]           µM          0.018
4  Cn1cc(-c2ccnc3sccc23)c(-c2ccc(F)cn2)n1 [Example 145]           µM           0.04
5  Cc1cc(-c2cn(C)nc2-c2ccc(F)c(C)n2)c2cn[nH]c2n1 [Example 40]           µM          0.019

a: Cn1cc(-c2ccnc3[nH]ncc23)c(-c2ccncc2F)n1 [Example 19]
b: Cn1cc(-c2ccnc3c2CC(=O)N3)c(-c2ccc(F)cn2)n1 [Example 3]
Challenge: Select one: a or b . Criterion: greater recorded AC50. To answer, give the label that identifies your chosen option.
Response given: a

I: CC(C)c1cc2c(-c3cn(C)nc3-c3ccc(F)cn3)ccnc2[nH]1 [Example 83]
II: Cc1cc(-c2cn(CC(F)(F)F)nc2-c2ccc(F)cn2)c2cn[nH]c2n1 [Example 70]
III: Cn1cc(-c2ccnc3[nH]ccc23)c(-c2cc(F)ccn2)n1 [Example 27]
IV: Cn1cc(-c2ccnc3[nH]ccc23)c(-c2nccn2C)n1 [Example 11]
V: Cn1cc(-c2ccnc3c2CCCN3)c(-c2ccc(F)cn2)n1 [Example 114]
Challenge: Arrange items by their AC50 values in increasing order. Put the labels in the requested order and list them out.
Response given: III, II, I, IV, V
(III: 0.004 µM, II: 0.012 µM, I: 0.054 µM, IV: 0.111 µM, V: 0.166 µM)

P: Cn1cc(-c2ccnc3[nH]ccc23)c(-c2cccnn2)n1 [Example 48]
Q: Cn1cc(-c2ccnc3[nH]c(C4(O)CCOC4)cc23)c(-c2ccc(F)cn2)n1 (racemic) [Example 96]
R: Cc1cc(-c2cn(C)nc2-c2ncco2)c2cn[nH]c2n1 [Example 8]
Challenge: # rank_down: sort by AC50, max first Put the labels in the requested order and list them out.
Response given: R, P, Q

The measurements presented in this section are drawn from patent US20230339900A1.
